MEASUREMENT_TARGET: T1, Human CD3eg linker (human)
T1 construct: single-chain construct; also called recombinant human CD3
T1 chain: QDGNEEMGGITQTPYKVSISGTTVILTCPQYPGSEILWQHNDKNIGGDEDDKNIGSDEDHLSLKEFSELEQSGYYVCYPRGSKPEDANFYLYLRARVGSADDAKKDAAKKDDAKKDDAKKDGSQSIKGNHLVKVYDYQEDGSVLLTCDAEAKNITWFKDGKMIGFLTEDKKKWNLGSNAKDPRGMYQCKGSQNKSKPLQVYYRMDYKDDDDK
ASSAY_PROCEDURE: SPR, vs unmutated H183/L072
QUANTITY_KIND: fold change of affinity (fold)
Answers are plain numbers, in fold.

dBBDu183H A100E/dBBDu072L (antibody, name in Kabat numbering, V domains shown) VH: QVQLVESGGGLVQPGRSLRLSCAASGFTFSNAWMHWVRQAPGKGLEWVAQIKDKGNAYAAYYAPSVKGRFTISRDDSKNSIYLQMNSLKTEDTAVYYCHYVHYASESTVLPAFGVDAWGQGTTVTVSS VL: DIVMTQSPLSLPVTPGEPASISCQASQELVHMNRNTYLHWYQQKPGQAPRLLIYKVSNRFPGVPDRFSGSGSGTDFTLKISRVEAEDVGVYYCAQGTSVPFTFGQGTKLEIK
0.5

Below are some binders; for each one, tell me its fold change of affinity.
1. dBBDu183H P100eF/dBBDu072L (antibody, name in Kabat numbering, V domains shown) VH: QVQLVESGGGLVQPGRSLRLSCAASGFTFSNAWMHWVRQAPGKGLEWVAQIKDKGNAYAAYYAPSVKGRFTISRDDSKNSIYLQMNSLKTEDTAVYYCHYVHYASASTVLFAFGVDAWGQGTTVTVSS VL: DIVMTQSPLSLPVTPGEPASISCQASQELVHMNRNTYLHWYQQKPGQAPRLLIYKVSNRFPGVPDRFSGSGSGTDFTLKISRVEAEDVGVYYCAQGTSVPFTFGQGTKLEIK
2. dBBDu183H A100fT/dBBDu072L (antibody, name in Kabat numbering, V domains shown) VH: QVQLVESGGGLVQPGRSLRLSCAASGFTFSNAWMHWVRQAPGKGLEWVAQIKDKGNAYAAYYAPSVKGRFTISRDDSKNSIYLQMNSLKTEDTAVYYCHYVHYASASTVLPTFGVDAWGQGTTVTVSS VL: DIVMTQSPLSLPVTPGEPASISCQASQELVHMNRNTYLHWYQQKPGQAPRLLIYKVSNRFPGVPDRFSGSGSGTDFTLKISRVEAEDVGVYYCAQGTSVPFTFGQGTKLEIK
3. dBBDu183H S100aF/dBBDu072L (antibody, name in Kabat numbering, V domains shown) VH: QVQLVESGGGLVQPGRSLRLSCAASGFTFSNAWMHWVRQAPGKGLEWVAQIKDKGNAYAAYYAPSVKGRFTISRDDSKNSIYLQMNSLKTEDTAVYYCHYVHYASAFTVLPAFGVDAWGQGTTVTVSS VL: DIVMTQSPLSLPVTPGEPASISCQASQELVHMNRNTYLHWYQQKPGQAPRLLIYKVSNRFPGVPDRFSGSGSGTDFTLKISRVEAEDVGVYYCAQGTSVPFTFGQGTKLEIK
4. dBBDu183H V95Q/dBBDu072L (antibody, name in Kabat numbering, V domains shown) VH: QVQLVESGGGLVQPGRSLRLSCAASGFTFSNAWMHWVRQAPGKGLEWVAQIKDKGNAYAAYYAPSVKGRFTISRDDSKNSIYLQMNSLKTEDTAVYYCHYQHYASASTVLPAFGVDAWGQGTTVTVSS VL: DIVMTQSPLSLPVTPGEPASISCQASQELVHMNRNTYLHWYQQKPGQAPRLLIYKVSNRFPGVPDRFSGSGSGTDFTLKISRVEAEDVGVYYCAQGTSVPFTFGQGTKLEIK

Solution:
1.9
1.6
1.6
0
